- Procedure summary: Cmax in horse at 10 mg/kg, iv after 15 mins
- Type: ADME, organism-based, Equus caballus
- Design: dose 10 mg/kg, route intravenous
- Condition info: in vivo
Measurement name: Cmax (ng/mL)

> print(dat)
                            smi  measurement.name  value.unit  measurement
1  Nc1nc2c(ncn2COCCO)c(=O)[nH]1              Cmax       ng/mL        46200

---

- Procedure summary: Plasma concentration in horse at 20 mg/kg, po administered as single dose after 5 hrs
- Format: ADME, organism-based, Equus caballus
- Parameters: dose 20 mg/kg, route oral
Measurement name: concentration at 5 h (ng/mL)

> print(dat)
                            smi      measurement.name  measurement
1  Nc1nc2c(ncn2COCCO)c(=O)[nH]1  concentration at 5 h           50
